# assay system: PI3k δ (Homo sapiens, UniProt O00329)
# Construct: Full length p110 subunits of PI3k α, β and δ; polyHis (N); made in house; host or cells: Sf9 insect cells (baculovirus)
# Sequence (O00329 whole entry): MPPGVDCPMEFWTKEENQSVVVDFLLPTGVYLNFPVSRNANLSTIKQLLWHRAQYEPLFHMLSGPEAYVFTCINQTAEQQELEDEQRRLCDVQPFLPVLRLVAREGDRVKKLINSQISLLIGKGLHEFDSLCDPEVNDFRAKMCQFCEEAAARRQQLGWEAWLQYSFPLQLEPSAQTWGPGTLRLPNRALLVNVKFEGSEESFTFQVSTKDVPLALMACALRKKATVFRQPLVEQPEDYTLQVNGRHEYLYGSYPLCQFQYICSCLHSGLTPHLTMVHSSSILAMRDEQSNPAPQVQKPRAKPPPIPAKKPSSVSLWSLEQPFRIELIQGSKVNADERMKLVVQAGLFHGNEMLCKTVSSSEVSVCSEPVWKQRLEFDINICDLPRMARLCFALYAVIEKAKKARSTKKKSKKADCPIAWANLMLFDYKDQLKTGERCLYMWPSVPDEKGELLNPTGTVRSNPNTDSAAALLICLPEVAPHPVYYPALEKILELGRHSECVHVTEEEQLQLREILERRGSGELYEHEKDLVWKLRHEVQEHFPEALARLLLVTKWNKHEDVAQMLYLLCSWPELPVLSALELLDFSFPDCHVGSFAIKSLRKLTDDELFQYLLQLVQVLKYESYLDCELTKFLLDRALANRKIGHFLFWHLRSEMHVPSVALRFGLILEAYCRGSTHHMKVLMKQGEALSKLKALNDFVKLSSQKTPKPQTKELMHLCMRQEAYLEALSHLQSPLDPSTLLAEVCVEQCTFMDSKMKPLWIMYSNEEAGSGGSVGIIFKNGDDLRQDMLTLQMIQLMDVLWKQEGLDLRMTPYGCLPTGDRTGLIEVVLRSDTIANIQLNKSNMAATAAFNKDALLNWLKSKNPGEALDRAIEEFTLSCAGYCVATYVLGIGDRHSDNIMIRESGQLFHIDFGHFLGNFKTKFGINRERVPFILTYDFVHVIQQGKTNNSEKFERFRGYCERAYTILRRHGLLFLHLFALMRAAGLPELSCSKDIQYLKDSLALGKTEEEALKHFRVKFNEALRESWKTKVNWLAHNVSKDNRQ
# Sequence (P27986 whole entry partner): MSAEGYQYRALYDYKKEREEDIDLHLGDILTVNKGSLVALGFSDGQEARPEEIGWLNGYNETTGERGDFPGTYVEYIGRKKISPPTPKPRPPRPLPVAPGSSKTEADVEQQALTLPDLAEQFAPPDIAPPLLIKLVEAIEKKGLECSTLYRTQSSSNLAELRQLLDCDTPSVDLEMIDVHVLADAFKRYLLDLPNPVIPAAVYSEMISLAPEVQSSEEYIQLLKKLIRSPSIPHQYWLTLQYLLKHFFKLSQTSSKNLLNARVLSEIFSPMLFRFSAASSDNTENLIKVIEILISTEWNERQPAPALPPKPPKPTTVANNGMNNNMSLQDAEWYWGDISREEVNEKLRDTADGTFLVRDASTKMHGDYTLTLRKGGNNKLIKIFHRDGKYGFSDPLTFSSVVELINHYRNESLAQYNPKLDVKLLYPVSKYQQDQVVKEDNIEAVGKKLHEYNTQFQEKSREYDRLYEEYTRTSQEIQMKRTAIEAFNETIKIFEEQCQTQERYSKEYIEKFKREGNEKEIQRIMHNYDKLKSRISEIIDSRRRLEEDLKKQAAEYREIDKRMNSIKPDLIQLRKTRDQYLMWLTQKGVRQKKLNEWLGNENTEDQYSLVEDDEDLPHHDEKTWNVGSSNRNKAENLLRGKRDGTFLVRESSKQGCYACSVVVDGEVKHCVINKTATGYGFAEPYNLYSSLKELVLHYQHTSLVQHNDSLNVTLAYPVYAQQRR
# assay explanation: biochemical
# Assay type: biochemical
# protocol conditions: read-out: PI3k δ Ki
property label: Ki

>>> df
                            molecule_smiles                           assay_system  property_label   result
0  C[C@H](Nc1ncnc(N)c1C#N)c1nc2cccc(C(=O)NC3CC3)n2c1-c1ccccc1  PI3k δ (Homo sapiens, UniProt O00329)              Ki  17.4 nM
1  C[C@H](Nc1ncnc(N)c1C#N)c1nc2c(F)cccc2n1-c1cncc(F)c1  PI3k δ (Homo sapiens, UniProt O00329)              Ki    47 nM
2  CNC(=O)c1cccc2nc([C@H](C)Nc3ncnc4[nH]cnc34)n(C3CC3)c12  PI3k δ (Homo sapiens, UniProt O00329)              Ki  14.6 nM
3  C[C@H](Nc1ncnc(N)c1C#N)c1nc2ccc(Cl)cc2n1-c1cc(F)cc(F)c1  PI3k δ (Homo sapiens, UniProt O00329)              Ki   2.7 nM

---

# assay system: PI3k δ (Homo sapiens)
# Construct: Full length p110 subunits of PI3k α, β and δ; polyHis (N); made in house; host or cells: Sf9 insect cells (baculovirus)
# assay explanation: biochemical
# Type: biochemical
# protocol conditions: read-out: PI3k δ Ki
pKi: −log10 of the molar value.
property label: pKi

>>> print(df.to_string())
                             molecule_smiles           assay_system  result
 0  C[C@@H](Nc1ncnc(N)c1C#N)c1nc2cc(F)ccc2n1-c1ccccn1  PI3k δ (Homo sapiens)    8.15
 1  C[C@H](Nc1ncnc(N)c1C#N)c1nc2cc(F)ccc2n1-c1cncc(F)c1  PI3k δ (Homo sapiens)    7.02
 2  C[C@H](Nc1ncnc(N)c1C#N)c1nc2ccc(F)cc2n1-c1cccc(F)n1  PI3k δ (Homo sapiens)    8.05
 3  C[C@H](Nc1ncnc2[nH]cnc12)c1nc2ccc(Cl)cc2n1-c1cc(F)cc(F)c1  PI3k δ (Homo sapiens)    8.08
 4  C[C@H](Nc1ncnc(N)c1C#N)c1nc2cccc(C(=O)NC(C)(C)C)c2n1C1CC1  PI3k δ (Homo sapiens)    7.13
 5  CNC(=O)c1cccc2nc([C@H](C)Nc3ncnc(N)c3-c3ccc(S(C)(=O)=O)cc3)n(C3CC3)c12  PI3k δ (Homo sapiens)    7.98
 6  CC[C@H](Nc1ncnc2[nH]cnc12)c1nc2cccc(C(F)(F)F)c2n1CC1CC1  PI3k δ (Homo sapiens)    7.00
 7  C[C@H](Nc1ncnc(N)c1C#N)c1nc2cccnc2n1-c1cc(F)cc(F)c1  PI3k δ (Homo sapiens)    6.86
 8  CNC(=O)c1cccc2nc([C@H](C)Nc3ncnc(N)c3C#N)n(C3CC3)c12  PI3k δ (Homo sapiens)    8.15
 9  CNC(=O)c1cccc2nc([C@H](C)Nc3ncnc(N)c3C#N)n(-c3cncc(F)c3)c12  PI3k δ (Homo sapiens)    7.99
10  C[C@H](Nc1ncnc(N)c1C#N)c1nc2ccccn2c1-c1ccc(Cl)cc1  PI3k δ (Homo sapiens)    7.13
11  C[C@@H](Nc1ncnc(N)c1C#N)c1nc2ccc(F)cc2n1-c1cccc(-c2ccccn2)c1  PI3k δ (Homo sapiens)    6.88
